B1: LINE1-full (parent)
chain: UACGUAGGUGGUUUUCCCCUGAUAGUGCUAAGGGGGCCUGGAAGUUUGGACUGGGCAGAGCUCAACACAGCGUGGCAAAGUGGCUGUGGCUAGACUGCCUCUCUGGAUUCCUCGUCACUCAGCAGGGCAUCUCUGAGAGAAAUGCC

- Variants of: B1
- Test description: self-cleavage, relative activity (ratio to wild type); higher = more cleavage; in vitro, sequencing; the parent is a self-cleaving ribozyme
Field: self-cleavage. Provide a value for each of the variants that follow.
Answer using only a numeral; do not append any unit.

Quick one: self-cleavage of U13C U45A ?
0.76

Quick one: self-cleavage of U39A A69U ?
0.04

Quick one: self-cleavage of U9A A79U ?
1.59

Quick one: self-cleavage of `U20G` ?
1.1

Quick one: self-cleavage of `G82U` ?
1.52

Quick one: self-cleavage of G40A A94U ?
0.26

Quick one: self-cleavage of U14C U119C ?
1.29

Quick one: self-cleavage of G122A A129G ?
1.19

Quick one: self-cleavage of U115C C116U ?
1.18

Quick one: self-cleavage of U14C G60A ?
0.11

Quick one: self-cleavage of A31G G32U ?
1.13
